IC50 values for Lysine-specific demethylase 5A (Homo sapiens, UniProt P29375) compiled from several publications are listed below.
experimental-endpoint: IC50

CC(Oc1cc(Cl)ccc1COc1ccnn1-c1cc(C(=O)O)ccn1)c1ccccc1 (centres unmarked)	0.1 to 1 µM
CCOc1cc(Cl)ccc1COc1ccnn1-c1cc(C(=O)O)ccn1	< 0.1 µM
O=C(O)c1ccnc(-c2cn(Cc3ccccc3F)cn2)c1	≤ 0.1 µM
Oc1nc(Oc2ccc(F)c(F)c2)nc2cnccc12	≤ 0.1 µM
CCC(c1ccccc1)n1cc(Oc2nc(O)c3ccncc3n2)cn1 (centres unmarked)	≤ 0.1 µM

###

IC50 values for Lysine-specific demethylase 5A (Homo sapiens) compiled from several publications are listed below.
experimental-endpoint: IC50

O=C(O)c1ccnc(-n2nc(-c3cccc(Cl)c3)cc2O)c1	1000 to 10000 nM
CC(C)c1cc(C(=O)N2CCC(NC(=O)C3COC3)C2)[nH]n1 (stereo not shown)	0.24 nM
COc1ccc2c(Nc3cnccc3C(=O)O)nn(C)c2c1	< 100 nM
CC(C)c1cc(C(=O)N2CCC(c3ccn(C(C)C)c(=O)n3)C2)[nH]n1 (stereo not shown)	0.19 nM
Cc1ccc(-c2cc(N)nn2-c2cc(C(=O)O)ccn2)cc1	< 100 nM
O=C(O)c1ccnc(-n2nccc2OCc2ccc(Cl)cc2/C=C/c2ccc(F)cc2)c1	100 to 1000 nM
O=C(O)c1ccnc2cc(C(=O)N3CCCC3)[nH]c12	< 100 nM
Cc1cc(NCc2ccccc2)cc(C2CCN(C(=O)c3cc(C(C)C)n[nH]3)C2)n1 (stereo not shown)	11 nM
O=C(O)c1ccnc2cc(COc3ccc(C(F)(F)F)cc3)[nH]c12	< 100 nM
O=C(O)c1ccnc2cc(CC3CCCCC3)[nH]c12	100 to 1000 nM
O=C(O)c1ccnc(-n2nccc2-c2ccc(F)cc2)c1	100 to 1000 nM
O=C(O)c1ccnc(-c2cn(CCN3Cc4ccc(Cl)cc4C3)cn2)c1	≤ 100 nM
CCC(C)c1cc(C(=O)N2CCC(NC(=O)C3CC3)C2)[nH]n1 (stereo not shown)	0.21 nM
CC(C)c1cc(C(=O)N2CCC(n3cc(Br)c(C(C)C)n3)C2)[nH]n1 (stereo not shown)	0.15 nM
O=C(O)c1ccnc(-c2cn(Cc3ccccn3)cn2)c1	≤ 100 nM
O=C(O)c1ccnc2cc(CC3CCCC3)[nH]c12	< 100 nM
CC(C)c1cc(C(=O)N2CCC(NC(=O)COc3ccccc3)C2)[nH]n1 (stereo not shown)	3.1 nM
CNCC(=O)N1CC[C@H](n2cc(Oc3nc(O)c4ccncc4n3)cn2)C1	≤ 100 nM
Oc1nc(Oc2cnn(Cc3ccccc3)c2)nc2cnccc12	≤ 100 nM

###

IC50 values for Lysine-specific demethylase 5A (Homo sapiens) compiled from several publications are listed below.
experimental-endpoint: IC50

CCC(C)c1cc(C(=O)N2CC[C@@H](NC(=O)[C@H]3C[C@H]3F)C2)[nH]n1 (some centres unmarked)	0.038 nM
O=C(O)c1ccncc1NC[C@@H]1CCCc2ccccc21	100 to 1000 nM
Cn1nc(Nc2cnccc2C(=O)O)c2cc(C(F)(F)F)ccc21	< 100 nM
O=C(O)c1ccnc(-c2cn(CCN3Cc4ccc(F)cc4C3)cn2)c1	≤ 100 nM
CC(C)c1cc(C(=O)N2CCC(N3Cc4ccccc4C3=O)C2)[nH]n1 (centres unmarked)	0.14 nM
O=C(O)c1ccncc1Nc1nn(CCN2CCOCC2)c2ccc(F)cc12	< 100 nM
CC(C)c1cc(C(=O)N2CCC(NC(=O)C3CCCCC3)C2)[nH]n1 (centres unmarked)	1.9 nM
COc1ccc(-c2cc3nccc(C(=O)O)c3[nH]2)c(C)c1	100 to 1000 nM
Cc1ccc(COc2ccnn2-c2cc(C(=O)O)ccn2)cc1Cl	< 100 nM
Oc1nc(Oc2cnn(C3CCOCC3)c2)nc2cnccc12	≤ 100 nM
Cn1cnc(-c2cc(C(=O)O)ccn2)c1-c1ccc(Cl)cc1C(F)(F)F	≤ 100 nM
O=C(O)c1ccncc1Nc1nn(CCCO)c2ccc(F)cc12	< 100 nM
CC(Oc1ccnn1-c1cc(C(=O)O)ccn1)c1ccc(F)cc1 (centres unmarked)	< 100 nM
COCCn1nc(Nc2cnccc2C(=O)O)c2ccccc21	< 100 nM
Cc1cccc(CNc2cnccc2C(=O)O)c1C1CC1	≤ 100 nM
O=C(O)c1ccncc1Nc1nn(CCN2CCCC2)c2ccc(F)cc12	< 100 nM
Oc1nc(OCC2CCC2)nc2cnccc12	100 to 1000 nM
O=C(O)c1ccncc1NCC12CC3CC(CC(C3)C1)C2	100 to 1000 nM
Cn1nc(Nc2cnccc2C(=O)O)c2cc(Cl)ccc21	< 100 nM
Cn1cnc(-c2nccc3c(O)nc(OCc4ccccc4C(F)(F)F)nc23)c1	100 to 1000 nM
